Tested on: transiently ocular hypertensive New Zealand white rabbits
assay overview: Intraocular pressure (IOP) lowering activity in hypertonic saline-induced IOP increase in rabbits
Type: in vivo
recorded conditions: 120 min after topical application; treatment group A (Tono-Pen VET); dose (%)
Source text: Intraocular Pressure (IOP) Lowering Activity in Hypertonic Saline-Induced IOP Increase in Rabbits Compounds (9), (10), (11), (12) and (13) of the invention and compounds (A-1) and (B-1) disclosed in WO 2009/136281 were directly compared with fluprostenol isopropyl ester and bimatoprost, in the same model of ocular hypertensive rabbit. The hypotensive effects of the two groups of compounds were independently evaluated at different time points and in different sets of hypertensive rabbits. […]
Reported Mean IOP changes vs vehicle and baseline, 120 min is given for each of the following compounds.
Output should be the measured figure followed by the unit it is expressed in.

- compound: "CC(C)OC(=O)CCC/C=C\\C[C@@H]1[C@@H](/C=C/[C@H](COc2cccc(C(F)(F)F)c2)OC(=O)COCCO[N+](=O)[O-])[C@H](O)C[C@@H]1O"
  assay target: "transiently ocular hypertensive New Zealand white rabbits"
  value observed: "−7.4 ± 0.9 mmHg"
- compound: "CC(C)OC(=O)CCC/C=C\\C[C@@H]1[C@@H](/C=C/[C@H](COc2cccc(C(F)(F)F)c2)OC(=O)CCCCCO[N+](=O)[O-])[C@H](O)C[C@@H]1O"
  assay target: "transiently ocular hypertensive New Zealand white rabbits"
  value observed: "−8.2 ± 1.2 mmHg"
- compound: "CC(C)OC(=O)CCC/C=C\\C[C@@H]1[C@@H](/C=C/[C@@H](O)COc2cccc(C(F)(F)F)c2)[C@H](O)C[C@@H]1O [Fluprostenol isopropyl ester, reference compound]"
  assay target: "transiently ocular hypertensive New Zealand white rabbits"
  value observed: "−2.0 ± 1.3 mmHg"
- compound: "CC(C)OC(=O)CCC/C=C\\C[C@@H]1[C@@H](/C=C/[C@H](COc2cccc(C(F)(F)F)c2)OC(=O)CCCC(CO[N+](=O)[O-])O[N+](=O)[O-])[C@H](O)C[C@@H]1O (stereo partly drawn)"
  assay target: "transiently ocular hypertensive New Zealand white rabbits"
  value observed: "−8.8 ± 1.2 mmHg"
- compound: "CC(C)OC(=O)CCC/C=C\\C[C@@H]1[C@@H](/C=C/[C@H](COc2cccc(C(F)(F)F)c2)OC(=O)CCOCC(CO[N+](=O)[O-])O[N+](=O)[O-])[C@H](O)C[C@@H]1O (stereo partly drawn)"
  assay target: "transiently ocular hypertensive New Zealand white rabbits"
  value observed: "−9.6 ± 1.0 mmHg"

Then there is this compound:
Query block: // lookup Mean IOP changes vs vehicle and baseline, 120 min | system=transiently ocular hypertensive New Zealand white rabbits | key= O=C(O)CCC/C=C\C[C@@H]1[C@@H](/C=C/[C@H](COc2cccc(C(F)(F)F)c2)OC(=O)CCCC(CO[N+](=O)[O-])O[N+](=O)[O-])[C@H](O)C[C@@H]1O (stereo partly drawn)
Result block: −6.9 ± 0.9 mmHg
